Biological target: A2a receptors, rat striatum (Rattus norvegicus, UniProt P30543)
Sequence (P30543 whole entry): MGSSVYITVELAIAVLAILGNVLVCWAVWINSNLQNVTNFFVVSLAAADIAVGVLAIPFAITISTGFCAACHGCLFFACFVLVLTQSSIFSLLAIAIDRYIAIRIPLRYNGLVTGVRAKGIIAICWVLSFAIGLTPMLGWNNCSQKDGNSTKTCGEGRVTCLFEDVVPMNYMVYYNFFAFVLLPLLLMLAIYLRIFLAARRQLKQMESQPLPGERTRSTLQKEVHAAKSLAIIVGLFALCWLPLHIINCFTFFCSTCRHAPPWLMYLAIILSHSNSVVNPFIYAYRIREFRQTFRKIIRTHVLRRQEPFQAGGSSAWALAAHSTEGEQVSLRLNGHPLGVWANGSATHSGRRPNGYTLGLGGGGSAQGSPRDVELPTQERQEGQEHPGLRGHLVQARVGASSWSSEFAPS
Assay: Radioligand binding vs [3H]N-ethylcarboxamidoadenosine, rat striatum
Parameters: Striatal tissue was isolated by dissection of rabbit, bovine, and rat brain; tissue Pel-Freeze Biologicals Co; host or cells: rat striatal membranes (frozen brain)
Conditions: Table VI; vs [3H]NECA; read-out: Inhibition of binding (Ki), rat striatum A2a
observable: Ki (µM)
Give just the numeric value; µM need not be written.

### Prompt So what does the record say about Ki for C#CCn1c(=O)c2c(ncn2C)n(C)c1=O ?
### Response 16

====

Biological target: bovine A2a receptors (Bos taurus, UniProt E1BKU0)
Sequence (E1BKU0 1-401): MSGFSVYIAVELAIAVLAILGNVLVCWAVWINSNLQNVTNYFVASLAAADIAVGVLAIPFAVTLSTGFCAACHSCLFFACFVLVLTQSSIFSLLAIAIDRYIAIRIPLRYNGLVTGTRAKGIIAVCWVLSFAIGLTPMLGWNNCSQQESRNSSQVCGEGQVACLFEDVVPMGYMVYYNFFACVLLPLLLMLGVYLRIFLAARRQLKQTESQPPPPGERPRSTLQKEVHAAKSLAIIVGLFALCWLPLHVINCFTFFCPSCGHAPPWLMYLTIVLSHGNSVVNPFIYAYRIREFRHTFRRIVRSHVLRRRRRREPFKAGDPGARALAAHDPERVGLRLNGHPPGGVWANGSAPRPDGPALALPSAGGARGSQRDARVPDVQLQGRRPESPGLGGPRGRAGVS
Assay: biochemical
observable: EC50 (µM)
Give just the numeric value; µM need not be written.

### Prompt So what does the record say about EC50 for Cn1c(=O)c2c(nc(/C=C/c3cccc(N=C=S)c3)n2C)n(C)c1=O [Compound 28e] ?
### Response 8

====

Target: rat striatal A2a receptors (Rattus norvegicus, UniProt P30543)
Sequence (P30543 whole entry): as the sequence (P30543 whole entry) above
Experiment: Radioligand binding, [3H]CGS 21680, rat striatal A2a receptors
Set-up: Rat cerebral cortical membranes and striatal membranes were prepared; from tissue; host or cells: rat striatal membranes
Settings: Table IV; vs [3H]CGS21680 (5 nM); read-out: Ki (A2)
observable: pKi
Just so you know, pKi here is -log10 of the concentration in molar units; reply with that number alone.

### Prompt So what does the record say about pKi for Cn1c(=O)c2c(nc(CCc3cccc(N)c3)n2C)n(C)c1=O ?
### Response 4.74

### Prompt Also COc1cccc2cc(-c3nc4c(c(=O)n(C)c(=O)n4C)n3C)oc12 [Compound 58b] ?
### Response 5.32

Next, consider the following compound.
### Prompt So what does the record say about pKi for COc1cccc2cc(-c3nc4c([nH]3)c(=O)n(C)c(=O)n4C)oc12 [Compound 58a] ?
### Response 5.41

====

Molecular target: rat striatal A2a receptors (Rattus norvegicus, UniProt P30543)
observable: pIC50
Just so you know, pIC50 here is -log10 of the concentration in molar units; reply with that number alone.

### Prompt So what does the record say about pIC50 for Cn1c(=O)c2c(nc(/C=C/c3cccc(N=C=S)c3)n2C)n(C)c1=O [Compound 28e] ?
### Response 5.57

====

Target: rat A1 cortical receptors (Rattus norvegicus, UniProt P25099)
Construct: Rat cerebral cortical membranes and striatal membranes were prepared; from tissue; host or cells: rat cerebral cortex membranes
Sequence (P25099 1-326): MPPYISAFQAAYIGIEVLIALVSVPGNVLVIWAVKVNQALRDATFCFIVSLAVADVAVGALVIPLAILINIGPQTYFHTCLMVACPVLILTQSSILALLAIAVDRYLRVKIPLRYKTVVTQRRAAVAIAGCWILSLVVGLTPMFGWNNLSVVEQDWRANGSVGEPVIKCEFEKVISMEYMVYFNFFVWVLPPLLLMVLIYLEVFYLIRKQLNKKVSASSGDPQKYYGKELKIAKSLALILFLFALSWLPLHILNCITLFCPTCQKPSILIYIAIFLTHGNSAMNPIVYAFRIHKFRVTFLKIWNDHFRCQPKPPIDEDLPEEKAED
Assay: Radioligand binding, [3H]N6-phenylisopropyladenosine ([3H]PIA), rat cortical A1 receptors
observable: Ki (µM)
Give just the numeric value; µM need not be written.

### Prompt So what does the record say about Ki for Cn1c(=O)c2c(nc(/C=C/c3cccc(N=C=S)c3)n2C)n(C)c1=O [Compound 28e] ?
### Response 20.3

====

Target: rat striatal A2a receptors (Rattus norvegicus)
Experiment: Radioligand binding, [3H]CGS 21680, rat striatal A2a receptors
Design: Rat cerebral cortical membranes and striatal membranes were prepared; from tissue; host or cells: rat striatal membranes
Conditions: Table III; vs [3H]CGS21680 (5 nM); read-out: Ki (A2)
Measured pKi values are reported for all entries that follow.
Just so you know, pKi here is -log10 of the concentration in molar units; reply with that number alone.

Worked cases, answers included:
### Prompt So what does the record say about pKi for Cn1c(=O)c2c(nc(/C=C/C(=O)O)n2C)n(C)c1=O [C(O)OH(Rβ = H)] ?
### Response 4.52

### Prompt Also Cn1c(=O)c2c(nc(/C=C/C(=O)OC(C)(C)C)n2C)n(C)c1=O [C(O)OC(CH3)3 (Rβ = H)] ?
### Response 6.23

### Prompt Also CCC/C=C/c1nc2c(c(=O)n(C)c(=O)n2C)n1C [n-propyl(Rβ = H)] ?
### Response 5.80

### Prompt Also Cn1c(=O)c2c(nc(/C=C/C(=O)Nc3ccccc3)n2C)n(C)c1=O [C(O)NH-phenyl(Rβ = H)] ?
### Response 5.60

Next, consider the following compound.
### Prompt So what does the record say about pKi for C/C(=C\c1nc2c(c(=O)n(C)c(=O)n2C)n1C)c1ccccc1 [phenyl (Rβ = Me)] ?
### Response 5.85

====

Biological target: rat A1 cortical receptors (Rattus norvegicus, UniProt P25099)
Construct: Rat cerebral cortical membranes and striatal membranes were prepared; from tissue; host or cells: rat cerebral cortex membranes
Test: Radioligand binding, [3H]N6-phenylisopropyladenosine ([3H]PIA), rat cortical A1 receptors
Conditions: Table I; vs [3H]PIA (1 nM), rat A1 receptors; read-out: Ki (A1)
Measured pKi values are reported for all entries that follow.
Just so you know, pKi here is -log10 of the concentration in molar units; reply with that number alone.

Worked cases, answers included:
### Prompt pKi of COc1cccc(/C=C/c2nc3c([nH]2)c(=O)n(C)c(=O)n3C)c1OC [Compound 31a] on rat A1 cortical receptors (Rattus norvegicus, UniProt P25099)?
### Response 5.80

### Prompt Also COc1cccc(/C=C/c2nc3c([nH]2)c(=O)n(C)c(=O)n3C)c1 [Compound 19a] ?
### Response 5.74

### Prompt Also COc1cc(/C=C/c2nc3c(c(=O)n(C)c(=O)n3C)n2C)cc(OC)c1OC/C=C/CN ?
### Response 5.20

### Prompt Also CCCn1c(=O)c2c(nc(/C=C/c3ccc(OC)c(OC)c3)n2C)n(CCC)c1=O [Compound 52b] ?
### Response 6.24

### Prompt Also Cn1c(=O)c2[nH]c(/C=C/c3cccc(N)c3)nc2n(C)c1=O [Compound 22a, 1,3-Dimethyl-8-(3-aminostyryl)xanthine] ?
### Response 6.54

---
### Prompt pKi of COc1cc(/C=C/c2nc3c(c(=O)n(C)c(=O)n3C)n2C)cc(OC)c1OCCCCN on rat A1 cortical receptors (Rattus norvegicus, UniProt P25099)?
### Response 5.21

### Prompt Also COc1cccc(/C=C/c2nc3c(c(=O)n(C)c(=O)n3C)n2C)c1 [Compound 19b] ?
### Response 5.27

====

Biological target: A1 receptors, bovine striatum (Bos taurus)
Construct: Striatal tissue was isolated by dissection of rabbit, bovine, and rat brain; tissue Pel-Freeze Biologicals Co
Sequence (P28190 whole entry): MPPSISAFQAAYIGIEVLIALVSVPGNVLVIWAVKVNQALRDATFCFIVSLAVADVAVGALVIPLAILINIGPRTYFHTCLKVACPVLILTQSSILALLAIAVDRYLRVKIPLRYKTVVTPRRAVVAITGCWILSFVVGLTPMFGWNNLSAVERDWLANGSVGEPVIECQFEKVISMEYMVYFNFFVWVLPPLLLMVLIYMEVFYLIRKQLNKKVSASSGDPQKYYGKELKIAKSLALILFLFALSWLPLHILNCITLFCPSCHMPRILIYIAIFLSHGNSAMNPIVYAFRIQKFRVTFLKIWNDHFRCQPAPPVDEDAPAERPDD
Test: Competition binding vs [3H]PIA, bovine striatal membranes
observable: pIC50
Just so you know, pIC50 here is -log10 of the concentration in molar units; reply with that number alone.

### Prompt So what does the record say about pIC50 for Cn1c(=O)c2c(nc(/C=C/c3cccc(N=C=S)c3)n2C)n(C)c1=O [Compound 28e] ?
### Response 4.20

====

Experiment: Aqueous solubility
Conditions: water, 0.5% dmso, organic solvent or mixture, concentration above which compound did not remain dissolved
observable: solubility kinetic (µM)
Give just the numeric value; µM need not be written.

### Prompt So what does the record say about solubility kinetic for CCCn1c(=O)c2c(nc(/C=C/c3cc(OC)cc(OC)c3)n2C)n(CCC)c1=O [Compound 53b] ?
### Response 10

====

Biological target: rat striatal A2a receptors (Rattus norvegicus, UniProt P30543)
Experiment: Radioligand binding, [3H]CGS 21680, rat striatal A2a receptors
Parameters: Rat cerebral cortical membranes and striatal membranes were prepared; from tissue; host or cells: rat striatal membranes
Conditions: Table III
Measured A1/A2 ratio values are reported for all entries that follow.
API doc: respond with a numeric literal and nothing else, no unit.

Worked cases, answers included:
### Prompt So what does the record say about A1/A2 ratio for Cn1c(=O)c2c(nc(/C=C/C(=O)OC(C)(C)C)n2C)n(C)c1=O [C(O)OC(CH3)3 (Rβ = H)] ?
### Response 31

### Prompt Also C/C(=C\c1nc2c(c(=O)n(C)c(=O)n2C)n1C)c1ccccc1 [phenyl (Rβ = Me)] ?
### Response 6

### Prompt Also Cn1c(=O)c2c(nc(/C=C/C(=O)Nc3ccccc3)n2C)n(C)c1=O [C(O)NH-phenyl(Rβ = H)] ?
### Response 19.8

Next, consider the following molecule.
### Prompt So what does the record say about A1/A2 ratio for CCC/C=C/c1nc2c(c(=O)n(C)c(=O)n2C)n1C [n-propyl(Rβ = H)] ?
### Response 3.8

====

Measured pKi values are reported for all entries that follow.
Biological target: rat A1 cortical receptors (Rattus norvegicus)
Construct: Rat cerebral cortical membranes and striatal membranes were prepared; from tissue; host or cells: rat cerebral cortex membranes
Test: Radioligand binding, [3H]N6-phenylisopropyladenosine ([3H]PIA), rat cortical A1 receptors
Conditions: Table I; vs [3H]PIA (1 nM), rat A1 receptors; read-out: Ki (A1)
Just so you know, pKi here is -log10 of the concentration in molar units; reply with that number alone.

Worked cases, answers included:
### Prompt So what does the record say about pKi for Cn1c(=O)c2c(nc(/C=C/c3cccc([N+]#N)c3)n2C)n(C)c1=O [Compound 28d] ?
### Response 5.52

### Prompt Also Cn1c(=O)c2c(nc(/C=C/c3ccccc3)n2C)n(C)c1=O [Compound 15b] ?
### Response 5.41

Next, consider the following compound.
### Prompt So what does the record say about pKi for CCCn1c(=O)c2c(nc(/C=C/c3ccc(OC)c(OC)c3OC)n2C)n(CCC)c1=O [Compound 55b] ?
### Response 6.42
